Biological target: Human complement C1s enzyme (Homo sapiens, UniProt P09871)
Construct: purified from human serum, Complement Technology, Inc
Experiment: Human C1s enzyme assay
Settings: human complement C1s enzyme 1.16 nM, substrate Z-L-Lys-SBzl, A405; read-out: IC50 (Stars)
pIC50: −log10 of the molar value.
Listed here are compounds together with their documented pIC50.

Solved entries:
>>> data_value("Cc1nc(-c2ccccc2)n(CC(=O)NCc2cc3cnccc3[nH]2)c(=O)c1NCc1ccc2oc3ccccc3c2c1")
"> 7.00"
>>> data_value("C[C@H](Nc1cnc(-c2ccccc2)n(CC(=O)NCc2cc3cnccc3[nH]2)c1=O)c1ccc(Oc2ccccc2)cc1")
"> 7.00"
>>> data_value("O=C(Cn1c(-c2ccccc2)ncc(NC(=O)c2ncc(-c3ccccc3)s2)c1=O)NCc1cc2cnccc2[nH]1")
"> 7.00"
>>> data_value("O=C(Cn1c(C2=CCCCC2)ncc(NCc2ccc3oc4ccccc4c3c2)c1=O)NCc1cc2cnccc2[nH]1")
"> 7.00"
>>> data_value("O=C(Cn1c(-c2ccccc2)ncc(Nc2ccc(-c3ccccc3)cc2)c1=O)NCc1cc2cnccc2[nH]1")
"6.00 to 7.00"

Prompt: Entry C[C@H](Nc1cnc(N2CCn3c(nnc3C(F)(F)F)C2)n(CC(=O)NCc2cc3cnccc3[nH]2)c1=O)c1ccc2oc3ccccc3c2c1 has what pIC50?
Response: > 7.00

Prompt: Follow-up item: O=C(Cn1c(-c2ccccc2)ncc(-c2nc3ccccc3[nH]2)c1=O)NCc1cc2cnccc2[nH]1
Response: < 6.00

----------
Target: Human complement C1s enzyme (Homo sapiens)
Construct: purified from human serum, Complement Technology, Inc
Assay: Human C1s enzyme assay
Conditions: human complement C1s enzyme 1.16 nM, substrate Z-L-Lys-SBzl, A405; read-out: IC50 (Stars)
outcome measure: IC50

>>> data_value("O=C(Cn1c(-c2ccccc2)ncc(NCCCc2ccc(F)cc2)c1=O)NCc1cc2cnccc2[nH]1 [Compound 46]")
"< 0.1 µM"

Prompt: Give IC50 (Human complement C1s enzyme (Homo sapiens)) of the following compound: C[C@@H](Nc1cnc(C2CCCC2)n(CC(=O)NCc2cc3cnccc3[nH]2)c1=O)c1ccc2oc3ccccc3c2c1 [Compound 324]
Response: 0.1 to 1 µM

Prompt: Follow-up item: O=C(Cn1c(-c2ccccc2)ncc(NCCCc2ccccc2)c1=O)N[C@H](CO)c1cc2cnccc2[nH]1 [Compound 15]
Response: > 1 µM

Prompt: Follow-up item: C[C@@H](Nc1cnc(-c2ccc(=O)n(C)c2)n(CC(=O)NCc2cc3cnccc3[nH]2)c1=O)c1ccc2oc3ccccc3c2c1 [Compound 290]
Response: 0.1 to 1 µM

----------
Target: Human complement C1s enzyme (Homo sapiens, UniProt P09871)
Construct: purified from human serum, Complement Technology, Inc
Assay: Human C1s enzyme assay
Details: human complement C1s enzyme 1.16 nM, substrate Z-L-Lys-SBzl, A405; read-out: IC50 (Stars)
Listed here are compounds together with their documented IC50.

>>> data_value("O=C(Cn1c(-c2ccc(S(F)(F)(F)(F)F)cc2)ncc(NCc2ccc(-c3ccccc3)cc2)c1=O)NCc1cc2cnccc2[nH]1")
"< 100 nM"
>>> data_value("O=C(Cn1c(-c2ccc(N3CCCC3=O)cc2)ncc(NCc2ccc3oc4ccccc4c3c2)c1=O)NCc1cc2cnccc2[nH]1")
"< 100 nM"
>>> data_value("C[C@@H](Nc1cnc(N2CCOCC2)n(CC(=O)NCc2cc3cnccc3[nH]2)c1=O)c1coc(-c2ccccc2)n1")
"< 100 nM"
>>> data_value("C[C@@H](Nc1cnc(C2=CCOCC2)n(CC(=O)NCc2cc3cnccc3[nH]2)c1=O)c1ccc2oc3ccccc3c2c1")
"< 100 nM"
>>> data_value("C[C@@H](Nc1cnc(-c2ccccc2)n(CC(=O)NCc2cc3cnccc3[nH]2)c1=O)c1ccc(Oc2ccccc2)cc1")
"< 100 nM"

// switching to the query compound
Prompt: Entry CS(=O)(=O)c1ccc(-c2ncc(NCc3ccc4oc5ccccc5c4c3)c(=O)n2CC(=O)NCc2cc3cnccc3[nH]2)cc1 has what IC50?
Response: < 100 nM

----------
Biological target: Human complement C1s enzyme (Homo sapiens)
Construct: purified from human serum, Complement Technology, Inc
Test: Human C1s enzyme assay
Settings: human complement C1s enzyme 1.16 nM, substrate Z-L-Lys-SBzl, A405; read-out: IC50 (Stars)
pIC50: −log10 of the molar value.
outcome measure: pIC50

>>> data_value("O=C(Cn1c(-c2ccc(O[C@@H]3CO[C@H]4[C@@H]3OC[C@H]4O)cc2)ncc(NC(=O)c2ccc(-c3ccccc3)s2)c1=O)NCc1cc2cnccc2[nH]1 [Compound 264]")
"> 7.00"

Prompt: Entry C[C@H](NC(=O)Cn1c(-c2ccccc2)ncc(NCCCc2ccccc2)c1=O)c1cc2cnccc2[nH]1 [Compound 9] has what pIC50?
Response: < 6.00

Prompt: Follow-up item: O=C(Cn1c(-c2ccccc2)ncc(NC(=O)c2ccc(Oc3ccc(C(F)(F)F)cc3)cc2)c1=O)NCc1cc2cnccc2[nH]1 [Compound 50]
Response: > 7.00

----------
Molecular target: Human complement C1s enzyme (Homo sapiens)
Construct: purified from human serum, Complement Technology, Inc
Assay: Human C1s enzyme assay
Details: human complement C1s enzyme 1.16 nM, substrate Z-L-Lys-SBzl, A405; read-out: IC50 (Stars)
Experimental: The […] values of the compounds of Table 1 were determined with the human C1s enzyme assay described below. Other standard complement assays are also available. Human complement C1s enzyme (purified from human serum, Complement Technology, Inc.) at 1.16 nM final concentration was incubated with test compound at various concentrations for 5 min at room temperature in 50 mM Tris, 1 M NaCl, pH 7.5. […] […]; ND indicates a compound for which the IC50 value is not determined.
outcome measure: IC50

Solved entries:
>>> data_value("O=C(Cn1c(-c2ccccc2)ncc(NC(=O)c2ccc(Oc3ccc(Br)cc3)cc2)c1=O)NCc1cc2cnccc2[nH]1")
"< 100 nM"
>>> data_value("CC(C)c1ncc(N[C@H](C)c2ccc3oc4ccccc4c3c2)c(=O)n1CC(=O)NCc1cc2cnccc2[nH]1")
"100 to 1000 nM"
>>> data_value("O=C(Cn1c(-c2ccccc2)cnc(NC(=O)c2ccc3c(c2)-c2ccccc2C3(F)F)c1=O)NCc1cc2cnccc2[nH]1")
"< 100 nM"
>>> data_value("CC(C)[C@@H](Nc1cnc(-c2ccccc2F)n(CC(=O)NCc2cc3cnccc3[nH]2)c1=O)c1ccc2oc3ccccc3c2c1")
"> 1000 nM"
>>> data_value("O=C(Cn1c(-c2ccccc2)ncc(NC(=O)c2n[nH]c(-c3ccccc3)n2)c1=O)NCc1cc2cnccc2[nH]1")
"< 100 nM"

Prompt: Entry COc1cccc(-c2ccc(C(=O)Nc3cnc(-c4ccccc4)n(CC(=O)NCc4cc5cnccc5[nH]4)c3=O)cc2F)c1 has what IC50?
Response: < 100 nM

Prompt: Follow-up item: O=C(Cn1cncc(NCc2cc3ccccc3o2)c1=O)NCc1cc2cnccc2[nH]1
Response: < 100 nM

----------
Listed here are compounds together with their documented IC50.
Molecular target: Human complement C1s enzyme (Homo sapiens, UniProt P09871)
Construct: purified from human serum, Complement Technology, Inc
Assay: Human C1s enzyme assay
Conditions: human complement C1s enzyme 1.16 nM, substrate Z-L-Lys-SBzl, A405; read-out: IC50 (Stars)

Solved entries:
>>> data_value("O=C(Cn1c(-c2ccc(O[C@@H]3CO[C@H]4[C@@H]3OC[C@H]4O)cc2)ncc(NC(=O)c2cnc(-c3ccccc3)s2)c1=O)NCc1cc2cnccc2[nH]1 [Compound 263]")
"< 100 nM"
>>> data_value("O=C(Cn1c(-c2ccccc2)ncc(NC(=O)c2ncc(-c3ccccc3)o2)c1=O)NCc1cc2cnccc2[nH]1 [Compound 171]")
"< 100 nM"
>>> data_value("O=C(Cn1c(-c2ccc(OC3COC3)cc2)ncc(NCCCc2ccccc2)c1=O)NCc1cc2cnccc2[nH]1 [Compound 86]")
"< 100 nM"
>>> data_value("C[C@@H](Nc1ncc(C2=CCOCC2)n(CC(=O)NCc2cc3cnccc3[nH]2)c1=O)c1ccc2oc3ccccc3c2c1 [Compound 426]")
"< 100 nM"
>>> data_value("O=C(Cn1c(-c2ccccc2)cnc(NC(=O)c2ccc(-c3ccccc3)cc2)c1=O)NCc1cc2cnccc2[nH]1 [Compound 100]")
"< 100 nM"

Prompt: Entry C[C@@H](Nc1cnc(N2CCCCC2)n(CC(=O)NCc2cc3cnccc3[nH]2)c1=O)c1nc(-c2ccccc2)co1 [Compound 487] has what IC50?
Response: < 100 nM

----------
Biological target: Human complement C1s enzyme (Homo sapiens, UniProt P09871)
Construct: purified from human serum, Complement Technology, Inc
Sequence (P09871 438-688 limits assumed): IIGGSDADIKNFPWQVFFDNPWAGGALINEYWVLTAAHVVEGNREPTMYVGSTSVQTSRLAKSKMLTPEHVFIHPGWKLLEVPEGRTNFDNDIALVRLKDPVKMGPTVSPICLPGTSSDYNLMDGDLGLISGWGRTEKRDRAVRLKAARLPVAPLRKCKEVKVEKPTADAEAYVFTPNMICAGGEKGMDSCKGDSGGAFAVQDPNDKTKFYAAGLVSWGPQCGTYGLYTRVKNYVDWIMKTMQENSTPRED
Sequence (P09871 16-437 partner limits assumed): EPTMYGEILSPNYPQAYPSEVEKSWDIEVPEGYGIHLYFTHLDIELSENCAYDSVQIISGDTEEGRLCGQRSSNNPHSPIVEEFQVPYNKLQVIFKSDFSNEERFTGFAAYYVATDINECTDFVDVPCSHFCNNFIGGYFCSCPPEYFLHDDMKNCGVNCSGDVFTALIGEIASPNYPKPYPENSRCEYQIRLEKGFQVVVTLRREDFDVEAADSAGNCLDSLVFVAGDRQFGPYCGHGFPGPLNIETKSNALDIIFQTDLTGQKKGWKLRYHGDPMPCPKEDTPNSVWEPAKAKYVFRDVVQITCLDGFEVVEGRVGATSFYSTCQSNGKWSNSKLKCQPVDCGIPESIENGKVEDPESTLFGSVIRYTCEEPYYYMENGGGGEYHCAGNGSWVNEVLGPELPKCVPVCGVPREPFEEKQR
Test: Human C1s enzyme assay
Conditions: human complement C1s enzyme 1.16 nM, substrate Z-L-Lys-SBzl, A405; read-out: IC50 (Stars)
pIC50: −log10 of the molar value.
outcome measure: pIC50

Solved entries:
>>> data_value("C[C@@H](Nc1cnc(N2CCSCC2)n(CC(=O)NCc2cc3cnccc3[nH]2)c1=O)c1ccc2oc3ccccc3c2c1 [Compound 384]")
"6.00 to 7.00"
>>> data_value("O=C(Cn1c(-c2ccccc2)ncc(NC(=O)c2ccc(-c3ccccc3F)cc2)c1=O)NCc1cc2cnccc2[nH]1 [Compound 214]")
"> 7.00"
>>> data_value("C[C@@H](Nc1cnc(N2CCCCC2)n(CC(=O)NCc2cc3cnccc3[nH]2)c1=O)c1cnc(-c2ccccc2)s1 [Compound 462]")
"> 7.00"

Prompt: Entry O=C(Cn1c(-c2ccccc2)ncc(NC(=O)c2cccc(-c3nccs3)c2)c1=O)NCc1cc2cnccc2[nH]1 [Compound 167] has what pIC50?
Response: > 7.00

Prompt: Follow-up item: C[C@@H](Nc1cnc(N2CCCCC2)n(CC(=O)NCc2cc3cnccc3[nH]2)c1=O)c1ccc2oc3ccccc3c2c1 [Compound 361]
Response: > 7.00

Prompt: Follow-up item: O=C(Cn1c(-c2ccccc2)ncc(NC(=O)CCC(=O)c2ccc(Oc3ccccc3)cc2)c1=O)NCc1cc2cnccc2[nH]1 [Compound 23]
Response: > 7.00

Prompt: Follow-up item: O=C(Cn1c(C2CCCC2)ncc(NCc2ccc3oc4ccccc4c3c2)c1=O)NCc1cc2cnccc2[nH]1 [Compound 253]
Response: > 7.00
